test system: HRgpA-6H (Porphyromonas gingivalis) (UniProt P28784)
test: ELISA, FASEBA screening, coated HRgpA-6H; variant OD over parental WT Fab OD
readout kind: Ratio OD(Variant)/OD(WT)

Worked set:
[[record]]
binder = "KB001 parental mouse Fab FASEBA variant VH A103C (Fab, V domains shown) VH: EVQLKQSGPGLVAPSQSLSITCTVSGFSLSIYSVHWVRQPPGKGLEWLGMIWGGGSSDYNSALKSRLSISKDNSKSQVFLKMNSLQTDDTAMYYCARNGNFYCMDYWGQGTSVTVSS VL: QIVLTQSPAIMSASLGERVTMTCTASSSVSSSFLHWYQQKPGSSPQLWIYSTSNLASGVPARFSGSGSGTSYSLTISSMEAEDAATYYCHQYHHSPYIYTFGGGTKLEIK"
readout_kind = "Ratio OD(Variant)/OD(WT)"
value_observed = 0.893

[[record]]
binder = "KB001 parental mouse Fab FASEBA variant VH G99Y (Fab, V domains shown) VH: EVQLKQSGPGLVAPSQSLSITCTVSGFSLSIYSVHWVRQPPGKGLEWLGMIWGGGSSDYNSALKSRLSISKDNSKSQVFLKMNSLQTDDTAMYYCARNYNFYAMDYWGQGTSVTVSS VL: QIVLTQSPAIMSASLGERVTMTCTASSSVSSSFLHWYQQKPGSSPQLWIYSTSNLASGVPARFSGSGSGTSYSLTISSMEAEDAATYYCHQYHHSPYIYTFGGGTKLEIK"
readout_kind = "Ratio OD(Variant)/OD(WT)"
value_observed = 0.965


Switching to the query record.
Name the recorded Ratio OD(Variant)/OD(WT) for KB001 parental mouse Fab FASEBA variant VH G99A (Fab, V domains shown) VH: EVQLKQSGPGLVAPSQSLSITCTVSGFSLSIYSVHWVRQPPGKGLEWLGMIWGGGSSDYNSALKSRLSISKDNSKSQVFLKMNSLQTDDTAMYYCARNANFYAMDYWGQGTSVTVSS VL: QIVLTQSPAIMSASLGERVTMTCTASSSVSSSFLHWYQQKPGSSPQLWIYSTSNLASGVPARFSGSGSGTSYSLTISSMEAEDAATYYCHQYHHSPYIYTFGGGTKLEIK .
0.928

Sourced from patent US20240400654A1
